Hello, the source for this data is PubChem BioAssay AID1852, in case you need it.

experimentDescription: TNF-a-driven NF-kB reporter inhibitors, primary screen, selectivity assay for NOD1/NOD2 signaling inhibitor project, cell-based, HEK293T NF-kB-Luc, luminescence (AID 1852)
assaySetup: TNF-a induced, 14 h, at 4 µM, active compounds read high
In all, about 2,500 compounds went through this assay and about 1,100 (44%) were called active. So high a share suggests a set chosen from earlier hits. The list shows a part of the results.
// inhibition lookup, one value per entry
Enter your answer as a number in %; do not include the unit.

O=C1C=C(N2CCOCC2)c2ccccc2C1=O | 23.7
O=C(c1ccc(S(=O)(=O)c2ccccc2Cl)c([N+](=O)[O-])c1)N1CCN(Cc2ccccc2)CC1 | 56.1
Cc1c(C)c2ccc(OCC(=O)Nc3ccc(N4CCC(C)CC4)cc3)cc2oc1=O | 94.7
CCOc1ccc(OCCN2C(=O)NC3(CCCc4ccccc43)C2=O)cc1 (stereo not given) | 18.7
Cc1cc(NC(=O)c2cccs2)n(-c2nc3ccccc3[nH]2)n1 | 35.4
CC1=NNC(=O)/C1=C\c1cn(-c2ccccc2)nc1-c1cccs1 | -42.7
O=C(c1ccc(S(=O)(=O)c2cccc(Cl)c2)c([N+](=O)[O-])c1)N1CCN(Cc2ccccc2)CC1 | 53.1
COc1cccc(/C=N/NC(=O)c2cc3c(OC)ccc(OC)c3[nH]2)c1O | 48.6

Given item `Cc1ccc(C(C)C)c(OCc2ccc(C(=O)N/N=C/c3cccc(O)c3O)cc2)c1` , the value recorded as its inhibition is 17.2

Given item `O=C(c1ccc(S(=O)(=O)c2ccc(F)cc2)c([N+](=O)[O-])c1)N1CCCCCC1` , the value recorded as its inhibition is 27.8

###

experimentDescription: TNF-a-driven NF-kB reporter inhibitors, primary screen, selectivity assay for NOD1/NOD2 signaling inhibitor project, cell-based, HEK293T NF-kB-Luc, luminescence (AID 1852)
assaySetup: TNF-a induced, 14 h, at 4 µM, active compounds read high
In all, about 2,500 compounds went through this assay and about 1,100 (44%) were called active. The set was probably picked from earlier hits. The list shows a part of the results.
Assign 1.0 whenever inhibition does not fall below 20%; assign 0.0 whenever it does.

// below: answered compounds
S=c1[nH]nc(-c2cc(-c3ccccc3)n[nH]2)n1/N=C/C(Br)=C/c1ccccc1 | 1.0
Cc1cc(-c2n[nH]c(=S)n2/N=C/C(Cl)=C/c2ccccc2)n[nH]1 | 0.0
Cc1nn(-c2ccccc2)c2nc(C(Cl)(Cl)Cl)[nH]c(=O)c12 | 1.0
CCn1nc(C)c(C(=O)Nc2cc(Oc3cc(C)cc(C)c3)cc([N+](=O)[O-])c2)c1C | 1.0
CCOc1ccc(Nc2nc(N)c3ccccc3n2)cc1 | 0.0
CC(=O)/C=C/n1c(=S)oc2ccccc21 | 1.0

Answer whether inhibition of `CC(C)CC(=O)/C=C/n1c(=S)oc2ccccc21` is greater than or equal to 20%.
1.0

Answer whether inhibition of `Cc1nn(-c2cc(C(F)(F)F)ccc2Cl)c2nc(C(Cl)(Cl)Cl)[nH]c(=O)c12` is greater than or equal to 20%.
1.0

Answer whether inhibition of `COc1cc(OC)c(OC)cc1/C=C/C(=O)c1ccc(NS(=O)(=O)c2ccc(C)cc2)cc1` is greater than or equal to 20%.
1.0
